# Tested on: HCT-116 colon
# Protocol: NCI tumour cell line growth inhibition, 48 h
Observable: TGI (µM)
One number for each entry, in µM.

Example results:
In [3]: df
Out[3]:
                                   compound  unit_string  assay_result
0  COC(=O)[C@H](Cc1ccccc1)NC(=O)NCCN(CCNC(=O)N[C@@H](Cc1ccccc1)C(=O)OC)C(=O)N[C@@H](Cc1ccccc1)C(=O)OC           µM          35.8
1  C[C@@]12C=CC3C/C(=N\C(N)=S)C=C(CCCC4OCCO4)[C@]3(CC1)C2 (stereo not given in full)           µM          26.8
2  N#CC(C#N)=Cc1ccc(-c2ccc(-c3nc4ccccc4s3)cc2)o1           µM          24.9

Now, please, on to the next compound.
## Input Which measured TGI belongs to Cc1occc1C(=S)Nc1ccc(Cl)c(C(=O)OCC(F)(F)F)c1 , tested on HCT-116 colon?
## Output 33.1
